Molecular target: T1, CRBN, Q96SW2;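 further: pooled lentiviral library of zinc finger degron-EGFP fusions in mCherry-positive Jurkat cells, FACS-sorted after compound exposure, with degron abundance counted by next-generation sequencing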
T1 chain: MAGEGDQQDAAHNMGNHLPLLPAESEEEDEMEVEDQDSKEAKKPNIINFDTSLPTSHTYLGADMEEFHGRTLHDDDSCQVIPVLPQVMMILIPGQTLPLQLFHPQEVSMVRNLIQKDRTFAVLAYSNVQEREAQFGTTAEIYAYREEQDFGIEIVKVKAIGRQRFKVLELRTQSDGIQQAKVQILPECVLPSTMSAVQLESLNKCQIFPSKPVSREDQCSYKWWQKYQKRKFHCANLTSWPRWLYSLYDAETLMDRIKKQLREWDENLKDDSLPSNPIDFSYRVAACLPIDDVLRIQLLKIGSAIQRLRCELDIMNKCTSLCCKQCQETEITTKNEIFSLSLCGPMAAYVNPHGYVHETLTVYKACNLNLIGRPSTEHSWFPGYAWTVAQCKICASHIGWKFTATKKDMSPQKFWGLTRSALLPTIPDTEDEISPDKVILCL
Experiment: log2 fold change of degron read counts, EGFP-low vs EGFP+ sorted cells (limma voom), compound-induced degradation; higher = more compound-induced degradation of the degron-EGFP fusion; degrons are variants of IKZF1/3 zinc finger 2; compound dose not given here
Settings: Jurkat; 18 h; compound: compound 19 (5-tert-butyl-thalidomide)
In all, about 8,300 sequences were measured (“log2 fold change of degron read counts, EGFP-low vs EGFP+ sorted cells (limma voom), compound-induced degradation”: median about -1.1, highest 2% from about 3.2 on). The sample holds the highest values, similar sequences and a random draw of the others, so the mix is not that of the screen.
Property: log2 fold change of degron read counts; scope: individual sequences
measureName: log2 fold change of degron read counts

- chain: "LTCPICGFVCTQKGNLLRHIKL [46L_47T_49P_50I_52G_53F_54V_55C_67L_, Q9UKT9]"
  endpointResult: 0.397
- chain: "LRCPICGFDCTQKGNLLRHIKL [46L_47R_49P_50I_52G_53F_54D_55C_67L_, Q9UKT9]"
  endpointResult: -1.49
- chain: "FSCPICGHVFTQKGNLLRHIKL [46F_47S_49P_50I_52G_53H_54V_55F_67L_, Q9UKT9]"
  endpointResult: -2.55
- chain: "FHCNQCGHKFTQKGNLLRHIKL [46F_47H_49N_50Q_52G_53H_54K_55F_67L_, Q9UKT9]"
  endpointResult: -2.56
- chain: "FMCNVCGAVFTQKGNLLRHIKL [46F_47M_49N_50V_52G_53A_54V_55F_67L_, Q9UKT9]"
  endpointResult: -2.62
- chain: "FNCNICGAIFTQKGNLLRHIKL [46F_47N_49N_50I_52G_53A_54I_55F_67L_, Q9UKT9]"
  endpointResult: -1.14
- chain: "LMCPICGFVCTQKGNLLRHIKL [46L_47M_49P_50I_52G_53F_54V_55C_67L_, Q9UKT9]"
  endpointResult: -0.234

Origin of measurements: the supplement of paper PMC12645437
